Assay: Saturation solubility in phosphate buffer with and without 10 % hydroxypropyl-β-cyclodextrin (MS 0.35)
Conditions: phosphate buffer, 10% hp-beta-cd, pH 6.6
Measured Endpoint: solubility thermodynamic at 24 h (µg/mL)
Answers are plain numbers, in µg/mL.

Known solubility thermodynamic at 24 h results, listed for orientation:
                                   compound  reported_measurement
0  COc1ccc2c(c1)c(CC(=O)O)c(C)n2C(=O)c1ccc(Cl)cc1                  5720
1  CC(=O)[C@H]1CC[C@H]2[C@@H]3CCC4=CC(=O)CC[C@]4(C)[C@H]3CC[C@]12C                  7690

Let us examine a further case.
Exam item: # get_value(readout='solubility thermodynamic at 24 h', item= `C[C@@H]1C[C@H]2[C@@H]3CCC4=CC(=O)C=C[C@]4(C)[C@@]3(F)[C@@H](O)C[C@]2(C)[C@@]1(O)C(=O)CO` )
Marked response: 14300
